B1: HDV Ribozyme (parent)
chain: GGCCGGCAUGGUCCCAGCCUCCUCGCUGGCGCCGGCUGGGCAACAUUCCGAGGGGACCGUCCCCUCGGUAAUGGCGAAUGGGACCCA

- Variants of: B1
- Test description: self-cleavage, relative activity (ratio to wild type); higher = more cleavage; co-transcriptional
Binary call on self-cleavage: t from 0.2 upward, f beneath that.

# Item sequence, Class label
records = [
    ("GGCCGGCAUGGUCCCAGUCUCCUCGCUGGCGCCGGCUGGGCAACAUUCCGAGGGGACCCUCCCCUCGGUAAUGGCGAAUGGGACCCA", "t"),
    ("GGCCGGCAUGGUCCCAGCCUCCUCACUGGCGCCGGCUGGGCAACAUUCCGAGGGGACCGUCCCCUCGGUAAUGGCGAAUGGUACCCA", "f"),
    ("GGCCGGCAUGGUCCCAGCCUCCUCGCUGGCGCCGGCUGGGCAACAUUCCGAGGGGCCCGUCCCCUCGGUAAUGGCGAAUGGGACCGA", "t"),
    ("GGCCGGCAUGGUCCCAGCCUCCUCGCUGGCGCCGGCUGGGCAACAUUCCGAGGGGACCGUCCCCUCGGUAAUGGCGAAUAGGACACA", "t"),
    ("GGCCGGCUUGGUCCCAGCCUCCUCGCUGGCGCCGGCUGGGCAACAUUCCGAGGGGACCGUCCCCUCGGUAAUGGCGAAUGUGACCCA", "f"),
    ("GGCCGGCAUGGUCCCAGCCUCCUCGCUUGCGCCGGCUGGGCAACAUUCCGAGGGGACCGUCCCCUUGGUAAUGGCGAAUGGGACCCA", "f"),
    ("GGCCGGCAUGGUCCCAGCCUCCUCGCUGGCGCCGGUUGGGCAACAUUCCGAGGGGACCGUCCCCUGGGUAAUGGCGAAUGGGACCCA", "t"),
    ("GGCCGGCAUGGUCCCAGCCUCCUCGCUGGCGCCGGCUGGGCAACAUUCCGAGGGGACCGUCCCCUCGGUUAGGGCGAAUGGGACCCA", "t"),
    ("GGCCGGCAUGGUCCCAGCCUCCUCGCUGGCACCGGCUGGGCAACAUUCCGAGGGGACCGUCCCCUCGGUAAUGGCGGAUGGGACCCA", "t"),
    ("GGCCGGCAUGGUCCCAGCCUGCUCGCUGGCGCCGGCUGGGCAACAUUCCGAGGGGACCGUCCCCUCGGUAAUGGCGAAUGGGAUCCA", "f"),
    ("GGCGGGCAUGGACCCAGCCUCCUCGCUGGCGCCGGCUGGGCAACAUUCCGAGGGGACCGUCCCCUCGGUAAUGGCGAAUGGGACCCA", "f"),
    ("CGCCGGCAUGGUCCCAGCCUCCUCGCUGGCGCCGGCUGGGCAACAUUCCGAGGGGACCGUCCCCUCGGUAAUGGCCAAUGGGACCCA", "t"),
    ("GGCCGGCAUGGUCCCAGCCUCCUCGCUGGCGCCGGCUGGGCAAUAUUCCGAGGGGACCGUACCCUCGGUAAUGGCGAAUGGGACCCA", "t"),
    ("GGCCGGCAUGGUCCCAGCCUCCUCGCUGGCGCCGGCUGGGCAACAUUCCGAGGGGACCGUCCCCUCGGUAAUGGCGAACGGGACCAA", "t"),
    ("GGGCGGCAUGGUCCCAGCCUCCUCGCUGGCGCCGGCUGGGCAACAUUCCGAGGGGACCGUCCCCUCGGUAAUGGCGAAUGUGACCCA", "f"),
    ("GGCCUGCAUGGUCCCAGCCUCCUCGCUGGCGCCGGCUGAGCAACAUUCCGAGGGGACCGUCCCCUCGGUAAUGGCGAAUGGGACCCA", "t"),
    ("GGCCGGCAUGGUCCCAGCCUCCUCGCUGGCGCCGGCUGGGCAACAUUCCGAGGGCACCGGCCCCUCGGUAAUGGCGAAUGGGACCCA", "t"),
    ("GGCCGGCAUGGUCCCAGCCUCCUCGCUGGCGCCGGCUGGGCAACAUUCGGAGGGGACCGUCGCCUCGGUAAUGGCGAAUGGGACCCA", "f"),
    ("GGCCGGCAUGGUCCCAGCCUCCUCGAUGGCGCCGGCUGGGCAACAUUCCGAGUGGACCGUCCCCUCGGUAAUGGCGAAUGGGACCCA", "t"),
    ("GGCCGGCAUGGUCCCAGCCUCCUCGCUGGGGCCGGCUAGGCAACAUUCCGAGGGGACCGUCCCCUCGGUAAUGGCGAAUGGGACCCA", "f"),
    ("GGCCGGCAUGGUGCCAGCCUCCUCGCUGGCGCCGGCUGAGCAACAUUCCGAGGGGACCGUCCCCUCGGUAAUGGCGAAUGGGACCCA", "f"),
    ("GGCCGGCAUGGUCCCAGCCUCCUCGCAGGCGCCGGCUGGGCAACAUUCCGAGGGGACCGUCCCCUCGGUCAUGGCGAAUGGGACCCA", "t"),
    ("GGCCGGCAUGGUCCCAGCCUCCUCGCUGGCCCCGGCUGGGCAACAUUCCGAGGGGACCGUCCCCUCGGUAAUGGCGAGUGGGACCCA", "t"),
    ("GGCCGGCAUGGUCCCAGCCUCCUCGCUGGGGCCGGCUGGGCAACGUUCCGAGGGGACCGUCCCCUCGGUAAUGGCGAAUGGGACCCA", "f"),
    ("GGCCGGCAUGGUCCCCGCCUCCUCGCUGGCGCCGGCUGGGCAACAUUCCGAGGGGACCGUCCCCUCGGUAAUGGCGAAUGGAACCCA", "t"),
    ("GGCCGGCAUGGUCCCAGCCUCCUCGCGGGCGCCGGCUGGGCAACAUUCCGAGGGGACCGUCCCCUCGGUAACGGCGAAUGGGACCCA", "t"),
    ("GGCCGGCAUGGUCCCAGCCUCCUCGCUGUCGCCGGCUGGGCAACAUUCCGAGGUGACCGUCCCCUCGGUAAUGGCGAAUGGGACCCA", "f"),
    ("GGCCGGCAUGGUCCCAGCCUCCUCUCUGGCGCCGGCUGGGCAACAUUCCGAGGGGACCGUCUCCUCGGUAAUGGCGAAUGGGACCCA", "f"),
    ("GGCCGGCAUGGUCCCAGCCUCCUCGCUGGCGCCGGCUGGGCAACAUUCCGAGGGGACCGUCCCCUCGCUAAUGACGAAUGGGACCCA", "t"),
    ("GGCAGGCAUGGUCCCAGCCUCCUCGCUGGCGCCGGCUGGGCAACAUUCCGAGGGGACCGUCCCCUCGGUAAUGGCGACUGGGACCCA", "f"),
]
